Header: Ki / Human σ1 receptor (Homo sapiens, UniProt Q99720) / multiple publications

>  <COMPOUND>
CCN1CCO[C@]2(CC[C@@H](N(C)CCC(C)C)CC2)C1

>  <EXPERIMENTAL READOUT>
Ki

>  <ASSAY VALUE>
< 500 nM

$$$$
>  <COMPOUND>
CC(C)CN1CCCC2(CC1)CN(Cc1ccccc1)CC1(CC1)O2 (stereo not drawn)

>  <EXPERIMENTAL READOUT>
Ki

>  <ASSAY VALUE>
< 100 nM

$$$$

stdin: API: value(readout= Ki, system= Human σ1 receptor (Homo sapiens, UniProt Q99720), query= CCC[C@@H](c1nc2ccncc2c(=O)n1CC)N1CCNC[C@H](C)C1 )
stdout: > 1000 nM

stdin: Give Human σ1 receptor (Homo sapiens, UniProt Q99720) Ki for Cc1cccc(CN2CCCC(c3ccnc4c(-c5ccncc5)c(C)nn34)C2)c1 (stereo not drawn)
stdout: > 1000 nM

stdin: Please state recorded Ki (tested on Human σ1 receptor (Homo sapiens, UniProt Q99720)) of CCN1C[C@@H](C2CCN(Cc3ccc(F)cc3)CC2)O[C@@H](C)C1=O
Sequence (Q99720 whole entry): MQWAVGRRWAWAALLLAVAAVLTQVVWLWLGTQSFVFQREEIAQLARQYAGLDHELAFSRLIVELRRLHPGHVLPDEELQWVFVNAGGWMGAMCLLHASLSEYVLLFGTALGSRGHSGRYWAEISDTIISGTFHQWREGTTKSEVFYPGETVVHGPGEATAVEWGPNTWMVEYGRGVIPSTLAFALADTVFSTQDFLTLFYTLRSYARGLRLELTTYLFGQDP
stdout: ≥ 500 nM

###

// cross-source set; read-out = Ki; system = UniProtKB Q99720

Example cases with answers are listed next.
>  <COMPOUND>
CCC[C@H](c1nc2ccc(F)cc2c(=O)n1CC)N1CCCN[C@@H](C)C1

>  <EXPERIMENTAL READOUT>
Ki

>  <ASSAY VALUE>
> 1000 nM

$$$$
>  <COMPOUND>
Cc1nn2c([C@H]3CCCN(Cc4ccc(Cl)cc4)C3)ccnc2c1CN[C@H](C)C1CCOCC1

>  <EXPERIMENTAL READOUT>
Ki

>  <ASSAY VALUE>
< 500 nM

$$$$
>  <COMPOUND>
Cc1cc2nccc(C3CCCN(Cc4cccc(O)c4)C3)n2n1 (centres unmarked)

>  <EXPERIMENTAL READOUT>
Ki

>  <ASSAY VALUE>
> 1000 nM

$$$$
>  <COMPOUND>
Clc1cncc(Cl)c1-c1cc2nccc(C3CCCN(Cc4ccccc4)C3)n2n1 (centres unmarked)

>  <EXPERIMENTAL READOUT>
Ki

>  <ASSAY VALUE>
500 to 1000 nM

$$$$

Now consider a different compound.
stdin: State the recorded Ki for this entry: O=C1N(c2ccccc2)CC(C2CN(Cc3ccccc3)C2)OC12CC2 (centres unmarked)
stdout: < 100 nM

###

Collected from the literature: Ki of various molecules toward Human σ1 receptor (Homo sapiens).

Some solved entries appear below for comparison.
>  <MOLECULE>
CC(C)N1CC(C2CCN(Cc3ccc(C#N)cc3)CC2)OC2(CC2)C1=O (centres unmarked)

>  <Ki>
≥ 500 nM

$$$$
>  <MOLECULE>
CCC[C@H](c1nc2cc(F)c(F)cc2c(=O)n1CC)N1CCCN[C@@H](C)C1

>  <Ki>
> 1000 nM

$$$$
>  <MOLECULE>
Cc1nn2c(C3CCCN(Cc4ccccc4)C3)ccnc2c1-c1ccccc1F (centres unmarked)

>  <Ki>
> 1000 nM

$$$$
>  <MOLECULE>
CCC[C@H](c1nc2cc(F)c(Cl)cc2c(=O)n1CC)N1CCNC[C@H](C)C1

>  <Ki>
500 to 1000 nM

$$$$
>  <MOLECULE>
Clc1nn2c([C@H]3CCCN(Cc4ccccc4)C3)ccnc2c1CNCC1CCOCC1

>  <Ki>
< 500 nM

$$$$
>  <MOLECULE>
CCC[C@@H](c1nc2ccc(Cl)cc2c(=O)n1CC)N1CCN(C)C[C@@H](C)C1

>  <Ki>
> 1000 nM

$$$$
>  <MOLECULE>
CCCC(c1nc2ncc(Br)cc2c(=O)n1CCC)N1CCCN(C)CC1 (centres unmarked)

>  <Ki>
> 1000 nM

$$$$

Okay, next one:
stdin: May I ask what Ki has been recorded for CCN1C[C@@H](C2CCN(Cc3ccccc3)CC2)O[C@H](C)C1=O ?
stdout: ≥ 500 nM
